meta.source: the supplement of paper PMC9112550

- Tested on: Escherichia coli TOP10;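 further: peptides expressed intracellularly from a pBAD plasmid library in pooled LB shake-flask culture, induced with 0.3% L-arabinose, DNA abundance read by NGS, three biological replicates, DESeq2 with apeglm shrinkage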
- Procedure text: shrunken log2 fold change of peptide-encoding DNA abundance (4.5 h post-induction vs induction); higher = less antimicrobial activity (less host growth inhibition)
- Assay conditions: time post-induction: 4.5 h; library: site-saturation at positions 5, 18, 19, 20
Overview of reported shrunken log2 fold change across a group of sequences:
Form: value (number only, do not type unit).

These solved cases illustrate the format of a correct answer.
[
  {
    "Residue codes": "RRIRHRPPRLPRPRPRPLGAPRP",
    "shrunken log2 fold change": -0.0242
  },
  {
    "Residue codes": "RRIRGRPPRLPRPRPRPFQGPRP",
    "shrunken log2 fold change": -0.0101
  },
  {
    "Residue codes": "RRIRFRPPRLPRPRPRPFQFPRP",
    "shrunken log2 fold change": -0.253
  }
]

For the sequence shown here, `RRIRRRPPRLPRPRPRPRKWPRP` , give the reported shrunken log2 fold change.
0.319

For the sequence shown here, `RRIRVRPPRLPRPRPRPLYYPRP` , give the reported shrunken log2 fold change.
-0.453

For the sequence shown here, `RRIRQRPPRLPRPRPRPNACPRP` , give the reported shrunken log2 fold change.
-0.000684
